Source: paper PMC9865188

- method: Pharmacokinetic study in Sprague Dawley rats (oral gavage)
- Format: in vivo
- condition_notes: male, Sprague-Dawley, rat, plasma, po, 20 mg/kg, Etoposide bioavailability, group B: etoposide 20 mg/kg + zosuquidar 0.63 mg/kg + 1.0% v/v polysorbate 20 oral
measured_endpoint: bioavailability (%)
Field format: number, assumed %, no unit text.

Looking up COc1cc([C@@H]2c3cc4c(cc3[C@@H](O[C@@H]3O[C@@H]5CO[C@@H](C)O[C@H]5[C@H](O)[C@H]3O)[C@H]3COC(=O)[C@H]23)OCO4)cc(OC)c1O [etoposide] , I see its bioavailability listed as 15.2

====

- method: Pharmacokinetic study in Sprague Dawley rats (oral gavage)
- Type: in vivo
- condition_notes: male, Sprague-Dawley, rat, plasma, po, 20 mg/kg, Etoposide AUC0–6h, group D: etoposide 20 mg/kg + zosuquidar 2.0 mg/kg + 5.0% v/v polysorbate 20 oral
measured_endpoint: AUC(0-t) (ng·h/mL)
Entry rule: numbers only, all in ng·h/mL.

Recorded result, COc1cc([C@@H]2c3cc4c(cc3[C@@H](O[C@@H]3O[C@@H]5CO[C@@H](C)O[C@H]5[C@H](O)[C@H]3O)[C@H]3COC(=O)[C@H]23)OCO4)cc(OC)c1O [etoposide] , AUC(0-t): 3080

====

- method: Pharmacokinetic study in Sprague Dawley rats (oral gavage)
- Assay type: in vivo
- condition_notes: male, Sprague-Dawley, rat, plasma, po, 20 mg/kg, Etoposide AUC0–6h, group B: etoposide 20 mg/kg + zosuquidar 0.63 mg/kg + 1.0% v/v polysorbate 20 oral
measured_endpoint: AUC(0-t) (ng·h/mL)
Could you give me the number in ng·h/mL? Just the number is fine.

// recorded AUC(0-t) for COc1cc([C@@H]2c3cc4c(cc3[C@@H](O[C@@H]3O[C@@H]5CO[C@@H](C)O[C@H]5[C@H](O)[C@H]3O)[C@H]3COC(=O)[C@H]23)OCO4)cc(OC)c1O [etoposide] : 2610

====

- method: Pharmacokinetic study in Sprague Dawley rats (oral gavage)
- Assay type: in vivo
- condition_notes: male, Sprague Dawley, rat, plasma, oral, 20 mg/kg, Etoposide C15min, group C: etoposide 20 mg/kg + 5.0% v/v polysorbate 20 oral
measured_endpoint: concentration at 15 min

get_value(item= COc1cc([C@@H]2c3cc4c(cc3[C@@H](O[C@@H]3O[C@@H]5CO[C@@H](C)O[C@H]5[C@H](O)[C@H]3O)[C@H]3COC(=O)[C@H]23)OCO4)cc(OC)c1O [etoposide] , readout=concentration at 15 min) returns 1130 ng/mL

====

- method: Pharmacokinetic study in Sprague Dawley rats (oral gavage)
- Assay type: in vivo
- condition_notes: male, Sprague-Dawley, rat, plasma, po, 20 mg/kg, Etoposide t½, group E: etoposide 20 mg/kg + zosuquidar 6.3 mg/kg + 5.0% v/v polysorbate 20 oral
measured_endpoint: half-life (min)
Note: unit min is implicit; provide only the numeric part.

# molecule COc1cc([C@@H]2c3cc4c(cc3[C@@H](O[C@@H]3O[C@@H]5CO[C@@H](C)O[C@H]5[C@H](O)[C@H]3O)[C@H]3COC(=O)[C@H]23)OCO4)cc(OC)c1O [etoposide] ; its half-life = 54.7

====

- method: Pharmacokinetic study in Sprague Dawley rats (oral gavage)
- Assay type: in vivo
- condition_notes: male, Sprague Dawley, rat, plasma, oral, Etoposide C15min, group B: etoposide 20 mg/kg + zosuquidar 0.63 mg/kg + 1.0% v/v polysorbate 20 oral
measured_endpoint: concentration at 15 min (ng/mL)
API: value field is a number in ng/mL; no unit string.

The compound listed as COc1cc([C@@H]2c3cc4c(cc3[C@@H](O[C@@H]3O[C@@H]5CO[C@@H](C)O[C@H]5[C@H](O)[C@H]3O)[C@H]3COC(=O)[C@H]23)OCO4)cc(OC)c1O [etoposide] has a reported concentration at 15 min of 1140

====

- method: Pharmacokinetic study in Sprague Dawley rats (oral gavage)
- Format: in vivo
- condition_notes: male, Sprague-Dawley, rat, plasma, po, 6.3 mg/kg, Zosuquidar AUC0–6h, group E: zosuquidar 6.3 mg/kg + etoposide 20 mg/kg + 5.0% v/v polysorbate 20 oral
measured_endpoint: AUC(0-t)

response.value for O[C@@H](COc1cccc2ncccc12)CN1CCN([C@@H]2c3ccccc3[C@@H]3[C@H](c4ccccc42)C3(F)F)CC1 (field: AUC(0-t)) = 0.047 µg·h/mL

====

- method: Pharmacokinetic study in Sprague Dawley rats (oral gavage)
- Assay type: in vivo
- condition_notes: male, Sprague-Dawley, rat, plasma, po, 20 mg/kg, Etoposide AUC0–6h, group A: etoposide 20 mg/kg + 1.0% v/v polysorbate 20 oral
measured_endpoint: AUC(0-t) (ng·h/mL)
Could you give me the number in ng·h/mL? Just the number is fine.

Value of AUC(0-t) reported for the compound COc1cc([C@@H]2c3cc4c(cc3[C@@H](O[C@@H]3O[C@@H]5CO[C@@H](C)O[C@H]5[C@H](O)[C@H]3O)[C@H]3COC(=O)[C@H]23)OCO4)cc(OC)c1O [etoposide] is 921

====

- method: Pharmacokinetic study in Sprague Dawley rats (oral gavage)
- Format: in vivo
- condition_notes: male, Sprague-Dawley, rat, plasma, po, 2 mg/kg, Zosuquidar bioavailability, group D: zosuquidar 2.0 mg/kg + etoposide 20 mg/kg + 5.0% v/v polysorbate 20 oral
- Method: The study was conducted according to the European Convention for the Protection of Vertebrate Animals used for Experimental and other Scientific Purposes (ETS no. 123) and Belgian law controlling the experiments on animals (Royal Decree of 29 May 2013 for the protection of laboratory animals). […] Pharmacokinetic parameters were calculated individually for each animal subject and pooled for statistical analysis. […]
measured_endpoint: bioavailability (%)
Please reply with the bare figure in % and do not write the unit itself.

// bioavailability value for O[C@@H](COc1cccc2ncccc12)CN1CCN([C@@H]2c3ccccc3[C@@H]3[C@H](c4ccccc42)C3(F)F)CC1 [zosuquidar] : 5.64

====

- method: Pharmacokinetic study in Sprague Dawley rats (oral gavage)
- Assay type: in vivo
- condition_notes: male, Sprague-Dawley, rat, plasma, po, 20 mg/kg, Etoposide t½, group B: etoposide 20 mg/kg + zosuquidar 0.63 mg/kg + 1.0% v/v polysorbate 20 oral
measured_endpoint: half-life (min)
Write down the numeric answer in min and omit the unit.

response.value for COc1cc([C@@H]2c3cc4c(cc3[C@@H](O[C@@H]3O[C@@H]5CO[C@@H](C)O[C@H]5[C@H](O)[C@H]3O)[C@H]3COC(=O)[C@H]23)OCO4)cc(OC)c1O [etoposide] (field: half-life) = 37.2

====

- method: Pharmacokinetic study in Sprague Dawley rats (oral gavage)
- Format: in vivo
- condition_notes: male, Sprague-Dawley, rat, plasma, po, 20 mg/kg, Etoposide t½, group A: etoposide 20 mg/kg + 1.0% v/v polysorbate 20 oral
measured_endpoint: half-life (min)
State the answer as a number, implicitly in min.

half-life reading for COc1cc([C@@H]2c3cc4c(cc3[C@@H](O[C@@H]3O[C@@H]5CO[C@@H](C)O[C@H]5[C@H](O)[C@H]3O)[C@H]3COC(=O)[C@H]23)OCO4)cc(OC)c1O [etoposide] : 42.4

====

- method: Pharmacokinetic study in Sprague Dawley rats (oral gavage)
- Format: in vivo
- condition_notes: male, Sprague Dawley, rat, plasma, po, 20 mg/kg, Etoposide Cmax, group A: etoposide 20 mg/kg + 1.0% v/v polysorbate 20 oral
measured_endpoint: Cmax (ng/mL)
Please reply with the bare figure in ng/mL and do not write the unit itself.

Given item COc1cc([C@@H]2c3cc4c(cc3[C@@H](O[C@@H]3O[C@@H]5CO[C@@H](C)O[C@H]5[C@H](O)[C@H]3O)[C@H]3COC(=O)[C@H]23)OCO4)cc(OC)c1O [etoposide] , the value recorded as its Cmax is 711

====

- method: Pharmacokinetic study in Sprague Dawley rats (oral gavage)
- Format: in vivo
- condition_notes: male, Sprague Dawley, rat, plasma, oral, 20 mg/kg, Etoposide C15min, group A: etoposide 20 mg/kg + 1.0% v/v polysorbate 20 oral
measured_endpoint: concentration at 15 min (ng/mL)
Hi! Could you send only the number? It should be in ng/mL, unit omitted.

The molecule listed as COc1cc([C@@H]2c3cc4c(cc3[C@@H](O[C@@H]3O[C@@H]5CO[C@@H](C)O[C@H]5[C@H](O)[C@H]3O)[C@H]3COC(=O)[C@H]23)OCO4)cc(OC)c1O [etoposide] has a reported concentration at 15 min of 404

====

- method: Pharmacokinetic study in Sprague Dawley rats (oral gavage)
- Type: in vivo
- condition_notes: male, Sprague-Dawley, rat, plasma, po, 20 mg/kg, Etoposide AUC0–6h, group C: etoposide 20 mg/kg + 5.0% v/v polysorbate 20 oral
measured_endpoint: AUC(0-t)

Looking up COc1cc([C@@H]2c3cc4c(cc3[C@@H](O[C@@H]3O[C@@H]5CO[C@@H](C)O[C@H]5[C@H](O)[C@H]3O)[C@H]3COC(=O)[C@H]23)OCO4)cc(OC)c1O [etoposide] , I found its AUC(0-t) recorded as 1970 ng·h/mL
